# assayName: Inhibition of serum complement system-mediated hemolysis of human RBCs
# conditions: read-out: IC50
measurementLabel: pIC50
Scale for pIC50: -log10 of concentration given in mol/L; no unit attached.

Lookup: Entry CCCN[C@H]1CC[C@H](C)[C@]2(Cc3cc(C(=O)O)ccc3O2)C1(C)C has what pIC50?
Found: 2.56

Lookup: Entry COC(=O)c1ccc2c(c1)C[C@@]1(O2)[C@@H](C)CC[C@@H](O)C1(C)C [FILIFOLINOL] has what pIC50?
Found: 2.70

Lookup: Entry C[C@H]1CC[C@@H](OCCO)C(C)(C)[C@@]12Cc1cc(C(=O)O)ccc1O2 has what pIC50?
Found: 2.36

Lookup: Entry C[C@@H]1CCC2C(C)(C)[C@H](O)[C@H](O)C[C@]2(C)[C@@]12Cc1c(O)cc(C(=O)O)c(C=O)c1O2 (stereo not given in full) has what pIC50?
Found: 3.24

Lookup: Entry COc1ccc(C(=O)O)c2c1C[C@@](C)([C@@H]1CC[C@](C)(O)[C@H](O)C1)O2 has what pIC50?
Found: 2.80

Lookup: Entry C[C@H]1CC[C@@H](OCC(O)CO)C(C)(C)[C@@]12Cc1cc(C(=O)O)ccc1O2 (stereo not given in full) has what pIC50?
Found: 2.33

Lookup: Entry CCCN[C@@H]1CC[C@H](C)[C@]2(Cc3cc(C(=O)O)ccc3O2)C1(C)C has what pIC50?
Found: 3.68

Lookup: Entry C[C@H]1CC[C@H](O)C(C)(C)[C@@]12Cc1cc(C(=O)O)ccc1O2 has what pIC50?
Found: 1.92

Lookup: Entry C[C@H]1CC[C@@H](O)C(C)(C)[C@@]12Cc1cc(C(=O)O)ccc1O2 has what pIC50?
Found: 3.29

Lookup: Entry COc1ccc(C(=O)O)c2c1C[C@@](C)([C@H]1CC=C(C)CC1)O2 has what pIC50?
Found: 3.17

Lookup: Entry C=CCO[C@@H]1CC[C@H](C)[C@]2(Cc3cc(C(=O)O)ccc3O2)C1(C)C has what pIC50?
Found: 2.51

Lookup: Entry CC1=CC[C@H]([C@]2(C)Cc3c(O)ccc(C(=O)O)c3O2)CC1 has what pIC50?
Found: 2.67

Lookup: Entry CCCO[C@@H]1CC[C@H](C)[C@]2(Cc3cc(C(=O)O)ccc3O2)C1(C)C has what pIC50?
Found: 3.26
